- assay_target: M-phase inducer phosphatase 2 (Homo sapiens) + Cyclin-dependent kinase 2 (Homo sapiens) + Cyclin-A2 (Homo sapiens) (UniProt P30305+P24941+P20248)
- test_description: primary biochemical HTRF screen for inhibition of M-phase inducer phosphatase 2 binding to cyclin-dependent kinase 2/cyclin A (AID 1259370)
- test_context: HTRF CDC25B-CDK2/CyclinA binding, anti-His/anti-Flag; hits give high values
Screen size: about 94,000 compounds; about 680 (0.72%) were called active. Many of the other results were omitted from the sample, so actives are more common in it than they were.
Form field: z-score (one value per entry).
Give the figure only, with no unit attached.

INSERT INTO results (compound, quantitative_readout) VALUES
  ('Cc1nc2cc(NCc3ccccn3)ccc2n1C', 14.6),
  ('CCc1cccc(-n2nnc(S(=O)(=O)c3ccc(C)cc3)c2C)c1', -0.89),
  ('CCOc1ccc(-c2cc(O)cc3sc(=O)oc23)cc1', -1.8),
  ('O=C1CC(c2ccccc2)Sc2nc(-c3ccccc3)nn21 (stereo not given)', -0.15),
  ('CC(C)c1ccc(C2c3c([nH][nH]c3=O)CC(C)(O)C2C(=O)OCc2ccccc2)cc1 (stereo not given)', -1.98);

**Q:** Assign z-score to the following record: O=C(CSc1ncnc2nc[nH]c12)c1ccc(O)c(O)c1
**A:** 2.58

**Q:** Tell us which z-score value is on record for N#Cc1c(-c2ccccc2)nc(SCCCCOc2ccc(Cl)cc2)[nH]c1=O
**A:** 4.75

**Q:** Fill in reported z-score for this entry: CN(Cc1ccccc1)c1oc(-c2ccc(COc3ccccc3)o2)nc1C#N
**A:** 1.1

**Q:** Using the record for Cc1cc2c(c(=O)n1CC1CCCO1)C(c1cccc(Br)c1)C(C#N)=C(N)O2 (stereo not given) , state its measured z-score.
**A:** -0.22

**Q:** // Input: CCSc1nc(-c2ccc(Cl)cc2)c(C#N)c(=O)[nH]1 . Output its z-score only.
**A:** -0.88

**Q:** Note z-score for the compound shown: ONC(=Nc1ccc2c(c1)OCO2)C(=Nc1ccc2c(c1)OCO2)NO
**A:** 20.3

**Q:** Given COc1ccc(-n2cnc3cc(NCc4ccco4)ccc32)cc1 , respond with its z-score.
**A:** -1.6

**Q:** Note down z-score recorded for Cc1ccc(S(=O)(=O)c2nc(S(=O)(=O)c3ccccc3)sc2NCc2ccccn2)cc1
**A:** 0.49

* * *

- assay_target: M-phase inducer phosphatase 2 (Homo sapiens) + Cyclin-dependent kinase 2 (Homo sapiens) + Cyclin-A2 (Homo sapiens) (UniProt P30305+P24941+P20248)
- test_description: primary biochemical HTRF screen for inhibition of M-phase inducer phosphatase 2 binding to cyclin-dependent kinase 2/cyclin A (AID 1259370)
- test_context: HTRF CDC25B-CDK2/CyclinA binding, anti-His/anti-Flag; hits give high values
In all, about 94,000 compounds went through this assay and about 680 (0.72%) were called active. This excerpt belongs to a sample that is enriched for actives.
z-score overview
Reply: number alone, nothing else.

The cases that follow already have their z-score on record.
INSERT INTO measurements (compound, quantitative_readout) VALUES
  ('Cc1[nH]c2ccccc2c1C1(O)C(=O)N(Cc2cccs2)c2ccc(Br)cc21 (stereo not given)', 1.66),
  ('COc1ccccc1-c1nnc(SCc2ccc(F)cc2)o1', 1.82),
  ('CCOC(=O)N1CCN(c2c(NCCN3CCN(c4cccc(Cl)c4)CC3)c(=O)c2=O)CC1', -2.84);

Next up:
**Q:** Report measured z-score; entry is CCCCN(CC)C(=O)c1nn(C)c2c1COc1ccccc1-2
**A:** -1.21
